Biological target: T1, human IL-36R on cells (human, UniProt Q9HB29 20-575)
T1 sequence (looked up): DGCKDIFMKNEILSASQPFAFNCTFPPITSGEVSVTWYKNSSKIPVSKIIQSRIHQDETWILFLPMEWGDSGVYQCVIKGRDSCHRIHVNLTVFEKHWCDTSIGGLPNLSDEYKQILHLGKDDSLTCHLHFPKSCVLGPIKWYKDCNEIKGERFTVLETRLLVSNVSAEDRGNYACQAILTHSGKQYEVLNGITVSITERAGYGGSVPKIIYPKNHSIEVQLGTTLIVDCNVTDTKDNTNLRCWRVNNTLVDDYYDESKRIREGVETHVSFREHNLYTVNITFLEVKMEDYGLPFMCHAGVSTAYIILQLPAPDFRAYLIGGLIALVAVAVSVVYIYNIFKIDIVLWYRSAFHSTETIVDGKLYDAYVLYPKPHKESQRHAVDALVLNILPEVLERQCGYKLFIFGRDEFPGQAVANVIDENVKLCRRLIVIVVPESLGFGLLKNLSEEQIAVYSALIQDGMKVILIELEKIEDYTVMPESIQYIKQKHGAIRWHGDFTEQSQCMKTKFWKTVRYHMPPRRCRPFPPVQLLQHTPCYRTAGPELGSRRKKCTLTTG
Test: cell-based or functional assay
MEASURED_PROPERTY: IC90, IL-8 release, NCI/ADR-RES cells, trun-IL-36g (nM)
One number for each entry, in nM.

antibody 81A1 (antibody, V domains shown, Mouse monoclonal from hybridoma; also called 81A1D1; Mouse 81A1) VH: QVQLKESGPGLVAPSQSLFITCTVSGFSLSSYEINWVRQVPGKGLEWLGVIWTGITTNYNSALISRLSISKDNSKSLVFLKMNSLQTDDTAIYYCARGTGTGFYYAMDYWGQGTSVTVSS VL: DIQMTQTTSSLSASLGDRVTISCRASQDIYKYLNWYQQKPDGTLKLLIYYTSGLHSGVPSRFSGSGSGTDFSLTISNLEPEDIATYFCQQDSKFPWTFGGDTKLEIK = 0.5
antibody 73F6 (antibody, V domains shown, Mouse monoclonal from hybridoma; also called 73F6F8; Mouse 73F6) VH: QVQLKESGPGLVAPSQSLSITCTVSGFSLTNYAVHWVRQFPGKGLEWLGVIWSDGSTDYNAPFKSRLSINKDNSKSQVFFKMNSLQTDDTAIYYCARKGGYSGSWFAYWGQGTLVTVSA VL: DIVMTQSQKFLSTSVGVRVSVTCKASQDVGTNVLWYQQKIGQSPKALIYSASYRHSGVPDRFTGSGSGTDFTLIITNVQSEDLAEYFCQQYSRYPLTFGPGTKLELK = 0.9

We now examine a further binder.
Entry antibody 81B4 (antibody, V domains shown, Mouse monoclonal from hybridoma; also called 81B4E11; Mouse 81B4) VH: QVQLQQPGADFVRPGASMRLSCKASGYSFTSSWIHWVKQRPGQGLEWIGEINPGNVRTNYNENFRNKATLTVDKSSTTAYMQLRSLTSADSAVYYCTVVFYGEPYFPYWGQGTLVTVSA VL: QIVLTQSPAIMSASLGERVTMTCTASSSVSSSYFHWYQQKPGSSPKLWIYRTSNLASGVPGRFSGSGSGTSYSLTISSMEAEDAATYYCHQFHRSPLTFGAGTKLELK : reported IC90, IL-8 release, NCI/ADR-RES cells, trun-IL-36g = ?
0.3
